# tested.system: HIV-1 Env of isolate REJ04541 (clade B pseudovirus) (HIV-1)
# test.details: cell-based or functional assay
readout.type: IC50 (neutralization, TZM-bl pseudovirus assay) (µg/mL)
Please reply with the bare figure in µg/mL and do not write the unit itself.

Examples with answers:
1469_M23 (PG16) (TCN-118) (antibody, V domains shown) VH: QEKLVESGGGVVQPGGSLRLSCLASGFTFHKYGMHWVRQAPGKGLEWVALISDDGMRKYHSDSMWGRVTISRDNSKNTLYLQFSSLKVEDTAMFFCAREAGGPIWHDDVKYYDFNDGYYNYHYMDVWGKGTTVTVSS VL: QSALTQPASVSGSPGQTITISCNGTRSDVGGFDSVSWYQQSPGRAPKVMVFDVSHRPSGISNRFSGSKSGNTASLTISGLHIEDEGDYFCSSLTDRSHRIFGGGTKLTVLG ... 0.39
1503_H05 (PG16) (TCN-119) (antibody, V domains shown) VH: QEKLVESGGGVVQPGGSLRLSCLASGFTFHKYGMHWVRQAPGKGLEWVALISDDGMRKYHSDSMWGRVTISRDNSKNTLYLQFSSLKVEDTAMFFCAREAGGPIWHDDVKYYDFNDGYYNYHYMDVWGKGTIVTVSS VL: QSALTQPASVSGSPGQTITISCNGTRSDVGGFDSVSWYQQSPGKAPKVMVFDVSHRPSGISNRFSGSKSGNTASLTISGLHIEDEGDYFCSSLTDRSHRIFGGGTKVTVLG ... 0.22

In the following, a different binder is considered.
Query: Name the recorded IC50 (neutralization, TZM-bl pseudovirus assay) for 1489_I13 (PG16) (TCN-120) (antibody, V domains shown) VH: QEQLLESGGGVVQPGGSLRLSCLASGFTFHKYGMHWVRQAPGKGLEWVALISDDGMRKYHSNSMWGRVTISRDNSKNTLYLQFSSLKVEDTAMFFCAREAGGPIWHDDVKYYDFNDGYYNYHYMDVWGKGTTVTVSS VL: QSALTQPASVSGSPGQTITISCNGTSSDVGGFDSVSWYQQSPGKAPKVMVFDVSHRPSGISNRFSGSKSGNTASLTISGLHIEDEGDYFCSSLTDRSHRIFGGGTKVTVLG .
Reply: 0.34
